Molecular target: biotinylated RBD (BLI sensors) (UniProt P0DTC2 319-537)
Assay: BLI
assay-endpoint: Kd (nM)
The response must be a number in nM with no trailing unit.

Below, 2 binders whose answers are already recorded.
INSERT INTO measurements (binder, assay_endpoint, experimental_result) VALUES
  ('Ab 15 scFv-Fc (scFv, V domains shown) VH: QVQLVQSGGGLVKPGRSLRLSCTASGFTFGDYAMSWFRQAPGKGLEWVGFIRSKAYGGTTGYAASVKGRFTISRDDSKSIAYLQMNSLKTEDTAVYYCTTADDDMDVWGKGTTVTVSS VL: NFMLTQPHSVSESPGKTVTISCTRSSGTIASNYVQWYQQRPGSAPTTVIYEDNQRPSGVPDRFSGSIDRSSNSASLTISGLTPDDEADYYCQSYDTSNHYVFGTGTKVTVL', 'Kd', 6.61),
  ('Ab 28 scFv-Fc (scFv, V domains shown) VH: QVTLKESGPGLVNPSETLSLTCTVSGASISNSFWSWIRQSPGKGLEWIGYTSYSGNSIYNPSLKSRLTMSIDTSKNQLSLNLRSLTAADTAVYYCARREWIKGHFDYWGQGTLVTVSS VL: NFMLTQPHSVSESPGKTVTISCTGSGGSIASNYVQWYQQRPGSAPTTVIYEDNQRPSGVPDRFSGSIDSSSNSASLTISGLKTEDEADYYCQSYDSSNPVVFGGGTKLTVL', 'Kd', 0.166);

Prompt line: Look up Kd: Ab_16 (scFv, V domains shown) VH: QVQLVQSGGGVVQPGRSLRLSCAASGFTFSNYGMHWVRQAPGKGLEWVALIWERGSKKDYADSVKGRFTVSRDNSKNTLYLQMNSLRPEDTAVYFCAREGISMTGAEYFQHWGQGTLVTVSS VL: QSVLTQPPSVSGSPGQRVTMSCTGSSSNIGAGYDVHWYQQVPGAAPRLLIYGTNNRPSGVPDRFSGSKSGTSASLTITGLQAEDEADYYCQSYDNSLTDPYVFGTGTKVTVL
Response line: 0.959

Prompt line: What does the record list as Kd for Ab_17 (scFv, V domains shown) VH: QVQLVQSGGGVVQPGRSLRLSCAASGFTFDDYAMHWVRQVPGKGLEWVSGIDWNSGVIGYADSVKGRFTISRDNVKNSLYLQMNSLRTEDSALYYCAKDIGPGGSGSYYAFDIWGQGTTVTVSS VL: QSALTQPASVSGSPGQSITISCTGTSSDVGGSKYVSWYQQHPGKAPKVMIYDVTKRPSGVPDRFSGSKSGNTASLTISGLQAEDEADYYCAAWDDSLNGVVFGGGTKLTVL ?
Response line: 0.882

Prompt line: Return reported Kd; argument: Ab_13 (scFv, V domains shown) VH: QVTLKESGPKLVKPTQTLTLTCTFSGFSLSTSGVGVGWIRQPPGKALEWLALIYWDDDKRYSPSLKSRLTIAKDTSKYQVVLTMTNMDPVDTATYYCARISGSGYFYPFDIWGQGTMVTVSA VL: NFMLTQPHSVSESPGKTVTISCTRSSGSIASNYVQWYQQRPGSAPTTVIYEDNQRPSGVPDRFSGSIDSSSNSASLTISGLKTEDEADYYCQSYDSSNLWVFGGGTKLTVL
Response line: 0.922

Prompt line: Kd lookup needed for Ab 25 scFv-Fc (scFv, V domains shown) VH: QVQLVQSGGGLVQPGGSLRLSCAASGFTFSSYWMSWVRQAPGKGLEWVANIKQDGSEKYYVDSVKGRFTISRDNAKNSLYLQMNSLRAEDTAVYYCARGFYYYGAFDIWGQGTTVTVSS VL: NFMLTQPHSVSESPGKTVTISCTGSSGSIASNYVQWYQQRPGSAPTTVIYEDNQRPSGVPDRFSGSIGSSSNSASLTISGLKTEDEADYYCQSYDSSNHWVFGGGTKLTVL , thanks.
Response line: 0.223

Prompt line: Can you share its Kd? I mean this binder: Ab 14 scFv-Fc (scFv, V domains shown) VH: QVQLQQSGPGLVKPSQTLSLTCAISGDSVSSNSAAWNWIRQSPARGLEWLGRTYYRSRWYNDYAISMKSRITINPDTSKNQFSLQLESVTPEDTAVYYCAREIRGFDYWGQGTLVTVSS VL: QSVLTQPPSASGSPGQSVTISCTGTSSDVGAYNFVSWYQHHPGKAPKLIIYDFNKRPSGVPDRFSGSKSGNTASLTVSGLQADDEADYYCSSYAGSNNFDVVFGGGTKLTVL
Response line: 0.911

Prompt line: Would you kindly share the measured Kd for Ab 21 (scFv, V domains shown) VH: QVQLVQSGGGLVQPGGSLRLSCATSGFTFDDYAMHWVRQAPGKGLEWVSGISWNSGSIGYVDSVKGRFTISRDNRNNKVYLQMNNLRAEDTAVYYCARDWWGSIDHWGLGTLVTVSS VL: QSALTQPRSVSGSPGQSVTISCTGTSSDVGGYDYVSWYQQHPGKAPKLIIYDVSKRPSGVPDRFSGSKSGNTASLTVSGLQAEDEADYYCSSYTSSSPVVFGGGTKLTVL ?
Response line: 1.48

Prompt line: Given Ab 19 scFv-Fc (scFv, V domains shown) VH: EVQLVESGAEVKKPGESLKISCKGSGYSFTSYWIGWVRQMPGKGLEWMGIIYPGDSDTRYSPSFQGQVTISADKSISTAYLQWSSLKASDTAMYYCARRGDLDAFDIWGQGTMVTVSS VL: QPGLTQPPAASGTPGQRVTVSCSGASANIGSNAVSWFKQFPETAPRLLISGNTHRPSGVPDRVSGSKSGTSASLTISGLQSDDEADYYCAAWDDSLNGYVFGSGTKVTVL , state its recorded Kd.
Response line: 0.533

Prompt line: May I ask what Kd has been recorded for Ab 26 scFv-Fc (scFv, V domains shown) VH: QVQLVQSGGGLVQPGRSLRLSCAASGFTFDDYAMHWVRQVPGKGLEWVSGIDWNSGVIGYADSVKGRFTISRDNAKNSLYLQMNSLRAEDTALYYCAKDAYSYGFLGAFDIWGQGTMVTVSS VL: LPVLTQPPSVSVAPGQTASITCGGDNIRTKGVHWYQQKPGQAPLLVIYYASDRPSGIPERFSGSSSGNTATLTISRVEAGDEADYYCQVWDSSSDLVVFGGGTTLTVL ?
Response line: 0.704
